target: mAChR M4 (Homo sapiens, UniProt P08173)
Construct: expressed in transfected cells; host or cells: CHO-K1 cells stably transfected with M4 cDNA and chimeric G-protein Gqi5
Sequence (P08173 whole entry): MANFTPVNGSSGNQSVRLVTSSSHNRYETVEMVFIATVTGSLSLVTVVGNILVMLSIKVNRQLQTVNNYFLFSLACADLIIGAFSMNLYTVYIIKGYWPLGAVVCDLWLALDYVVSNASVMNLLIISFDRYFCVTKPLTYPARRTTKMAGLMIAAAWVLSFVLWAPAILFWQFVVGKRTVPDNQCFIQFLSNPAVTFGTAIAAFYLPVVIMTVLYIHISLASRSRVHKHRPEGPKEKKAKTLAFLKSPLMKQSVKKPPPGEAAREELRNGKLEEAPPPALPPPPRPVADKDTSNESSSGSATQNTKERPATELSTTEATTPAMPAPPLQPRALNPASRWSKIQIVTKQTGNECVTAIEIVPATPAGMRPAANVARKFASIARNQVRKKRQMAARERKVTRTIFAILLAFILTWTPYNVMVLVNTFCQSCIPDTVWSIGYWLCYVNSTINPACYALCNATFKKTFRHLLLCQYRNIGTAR
protocol-text: mAChR M4 cell-based functional assay (calcium mobilization, potentiation of EC20 acetylcholine response)
run-conditions: mAChR M4 cell-based functional assay; >10,000 estimated for low potency compounds without plateau; read-out: EC50
Measured pEC50, listed per entry for reference.
Note on units: pEC50 is unitless, being -log10 of a concentration expressed in mol/L.

Consider the reported pEC50 for these compounds:
Value lookup for pEC50; key = Cc1cc(-c2ccc(CNC(=O)c3sc4nnc(C)c(C)c4c3N)cc2)cnc1Cl
7.49

Value lookup for pEC50; key = Cc1nnc2sc(C(=O)N[C@H]3C[C@@H]3c3ccc(S(C)(=O)=O)cc3)c(N)c2c1C (single isomer, unassigned)
7.74

Value lookup for pEC50; key = Cc1nnc2sc(C(=O)NCc3ccc([S+]([O-])C(F)(F)F)cc3)c(N)c2c1C (stereo not shown)
5.80

Value lookup for pEC50; key = Cc1nnc2sc(C(=O)NCc3ccc4c(c3)CN(C(C)C)C4=O)c(N)c2c1C
6.66

---
Value lookup for pEC50; key = COc1ccc([C@@H]2C[C@H]2NC(=O)c2sc3nnc(C)c(C)c3c2N)cc1 (single isomer, unassigned)
6.52

Value lookup for pEC50; key = Cc1nnc2sc(C(=O)NC3CN(C(=O)C4CCC4)C3)c(N)c2c1C
6.74

Value lookup for pEC50; key = COc1cccc(S(=O)(=O)N2CCC(NC(=O)c3sc4nnc(C)c(C)c4c3N)C2)c1 (stereo not shown)
6.09

----------
target: mAChR M4 (Homo sapiens)
Construct: expressed in transfected cells; host or cells: CHO-K1 cells stably transfected with M4 cDNA and chimeric G-protein Gqi5
protocol-text: mAChR M4 cell-based functional assay (calcium mobilization, potentiation of EC20 acetylcholine response)
run-conditions: mAChR M4 cell-based functional assay; >10,000 estimated for low potency compounds without plateau; read-out: EC50
Measured pEC50, listed per entry for reference.
Note on units: pEC50 is unitless, being -log10 of a concentration expressed in mol/L.

Consider the reported pEC50 for these molecules:
Value lookup for pEC50; key = Cc1nnc2sc(C(=O)N3CC(Br)(c4ccccc4)C3)c(N)c2c1C
5.68

Value lookup for pEC50; key = Cc1nnc2sc(C(=O)NC3CCN(C(=O)CCCc4ccccc4)C3)c(N)c2c1C (centres unmarked)
6.28

Value lookup for pEC50; key = Nc1c(C(=O)NCc2ccc3c(c2)OCCO3)sc2nnc3c(c12)CCCC3
7.14

Value lookup for pEC50; key = Cc1nnc2sc(C(=O)NC3CCCCC3)c(N)c2c1C
5.82

Value lookup for pEC50; key = Cc1nnc2sc(C(=O)NCc3ccc(CN4CCSCC4)cc3)c(N)c2c1C
7.09

Value lookup for pEC50; key = Cc1nnc2sc(C(=O)N3CC(O)(c4ccccc4)C3)c(N)c2c1C
6.04

Value lookup for pEC50; key = Cc1nnc2sc(C(=O)N3CC(F)(c4cccc(N=[N+]=[N-])c4)C3)c(N)c2c1C
5.51

Value lookup for pEC50; key = Cc1nnc2sc(C(=O)N3CCCC(c4ccccc4)C3)c(N)c2c1C (centres unmarked)
5.77

---
Value lookup for pEC50; key = Cc1nnc2sc(C(=O)N[C@H]3CCN(S(C)(=O)=O)C3)c(N)c2c1C
6.34

Value lookup for pEC50; key = Cc1nnc2sc(C(=O)NC3CN(c4ncc(Br)cn4)C3)c(N)c2c1C
7.64

Value lookup for pEC50; key = Cc1nnc2sc(C(=O)N3CC(F)(c4ccc(-c5cncnc5)cc4)C3)c(N)c2c1C
6.41

Value lookup for pEC50; key = Cc1cncc(NC(=O)c2sc3nnc(C)c(C)c3c2N)c1
6.34

Value lookup for pEC50; key = Cc1nnc2sc(C(=O)NCc3ccc(-c4ccc(F)nc4F)cc3)c(N)c2c1C
6.68

Value lookup for pEC50; key = Cc1nnc2sc(C(=O)Nc3ccc4cn[nH]c4c3)c(N)c2c1C
6.46

Value lookup for pEC50; key = COC1(C2CCCCC2)CN(C(=O)c2sc3nnc(C)c(C)c3c2N)C1
5.96

Value lookup for pEC50; key = Cc1nnc2sc(C(=O)NC3CCN(c4ccccc4OC(F)(F)F)C3)c(N)c2c1C (centres unmarked)
6.66

Value lookup for pEC50; key = Cc1nnc2sc(C(=O)NC3CN(c4nc5ccccc5o4)C3)c(N)c2c1C
7.55

Value lookup for pEC50; key = COc1ccc(CNC(=O)c2sc3nnc(C)c(C)c3c2N)c(F)c1
7.62

Value lookup for pEC50; key = Cc1nnc2sc(C(=O)N[C@@H]3CCN(c4ccccc4)C3)c(N)c2c1C
5.74

Value lookup for pEC50; key = Cc1ccc(CNC(=O)c2sc3nnc(C)c(C)c3c2N)nc1
6.29

Value lookup for pEC50; key = COc1ccc(C2(OC)CN(C(=O)c3sc4nnc(C)c(C)c4c3N)C2)cc1
6.36
